Origin of values: patent US20250282885A1

Experimental system: T1, human Sdc2 (human, UniProt P34741 19-144, limits assumed)
T1 construct: Antigen of the Octet tandem binning, loaded on biosensors at 100 nM; also called huSdc2; hSdc2
T1 sequence (P34741 19-144 limits assumed): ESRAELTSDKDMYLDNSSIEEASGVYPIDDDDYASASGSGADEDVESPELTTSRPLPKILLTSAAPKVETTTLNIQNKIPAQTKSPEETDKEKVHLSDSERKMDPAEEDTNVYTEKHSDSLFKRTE
Measurement description: Octet tandem binning; saturating Ab f11 19838-20-H19-A
Flag rule - raw competing-Ab binding signal less than 0.1 flags criterion met; the remaining entries get criterion not met.

R3-P3-C11 (antibody, human IgG1, kappa, V domains shown, human IgG1 kappa from the phage campaign) VH: EVQLVESGGGLVQPGRSLRLACEASGFTFNNYAVHWVRQAPGKGLEWVAVISYDGTNKYYSDSMKGRFTISRDNSKNTLYLQINSLRVEDTAVYFCARGNYVRRDSFDIWGQGTMVTVSS VL: DIQMTQSPPSLSASVGDRVTITCRASQSISSYLNWYQQKPGKAPKLLIYGASSLQSGVPLRFSGSGSGADFTLTISSLQPEDFATYYCQQSYISPITFGQGTRLEIKR	criterion not met

Task: Problem: For the binder R4M-P1-A10 (antibody, human IgG1, kappa, V domains shown) VH: EVQLVETGGGVVQPGRSLRLSCAASGFTFSSYAMHWVRQAPGKGLEWVAVISYDGSNKYYADSVKGRFTISRDNSKNTLYLQMNSLRAEDTAVYYCARDRGWADAFDIWGQGTMVTVSS VL: QAGLTQPPSVSKGLRQTATLTCTGNSNNVGYQGAVWLLQYQGHPPKVLSNRNNDRPSGISERLSASRSGNTASLTITGLQPEDEGDYFCAAWDGSLRGWVFGGGTKLTVLR , is raw competing-Ab binding signal under 0.1?
Result: criterion not met

Task: Now the same for 6-N03-A (antibody, mouse IgG1, kappa, V domains shown) VH: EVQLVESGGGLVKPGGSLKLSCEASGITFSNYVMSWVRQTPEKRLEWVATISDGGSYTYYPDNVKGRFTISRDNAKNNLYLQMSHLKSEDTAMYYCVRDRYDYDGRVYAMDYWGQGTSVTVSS VL: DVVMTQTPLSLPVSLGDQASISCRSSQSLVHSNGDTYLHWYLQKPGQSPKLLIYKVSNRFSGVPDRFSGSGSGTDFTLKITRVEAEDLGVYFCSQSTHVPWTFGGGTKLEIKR
Result: criterion met

Task: Let us now turn to 19838-6-N03-A (antibody, IgG1, V domains shown) VH: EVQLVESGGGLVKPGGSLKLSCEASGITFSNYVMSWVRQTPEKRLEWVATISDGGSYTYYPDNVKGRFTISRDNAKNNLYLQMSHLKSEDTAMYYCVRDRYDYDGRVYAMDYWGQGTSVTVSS VL: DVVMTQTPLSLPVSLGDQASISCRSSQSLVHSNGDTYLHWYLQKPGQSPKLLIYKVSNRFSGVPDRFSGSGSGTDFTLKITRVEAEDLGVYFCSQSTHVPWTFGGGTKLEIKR
Result: criterion not met

Task: Try this binder too: R4M-P3-E06 (antibody, human IgG1, kappa, V domains shown, human IgG1 kappa from the phage campaign) VH: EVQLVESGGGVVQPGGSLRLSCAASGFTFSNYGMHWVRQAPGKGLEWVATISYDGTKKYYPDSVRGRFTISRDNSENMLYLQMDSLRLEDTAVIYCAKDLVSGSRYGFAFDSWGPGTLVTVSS VL: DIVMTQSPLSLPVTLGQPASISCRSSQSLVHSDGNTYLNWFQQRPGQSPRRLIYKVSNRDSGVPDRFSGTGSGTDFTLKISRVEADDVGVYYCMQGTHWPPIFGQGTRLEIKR
Result: criterion not met

Task: // repeat for 8-G17-A (antibody, V domains shown, PentaMice hybridoma clone, made recombinantly in CHO cells) VH: EVQLVESGGGLVKPGGSLKLSCEASGITFSNYVMSWVRQTPEKRLEWVATISDGGSYTYYPDNLKGRFTISRDNAKNNLYLQMSHLKSEDTAMYYCVRDRYDYDGRVYAMDYWGQGTSVTVSS VL: DVVMTQTPLSLPVSLGDQASISCRSSQSLVHSNGNTYLHWYLQKPGQSPKLLIYKVSNRFSGVPDRFSGSGSGTDFTLKITRVEAEDLGVYFCSQSTHVPWTFGGGTKLEIKR and report
Result: criterion not met
